Origin of the recorded values: paper PMC10091778

test system: 4T1, A549, and HL‐60 cells; assay type: cell-based; details: resazurin assay, 72 h, up to 50 µM, three cancer cell lines
ASSAY_READOUT: Cytotoxic / antiproliferative activity in words

[
  {
    "MOLECULAR_STRING": "Nc1nc(-c2cccc(NC(=O)c3cc(Br)c[nH]3)c2)c(C(=O)c2ccccc2)[nH]1",
    "MEASURED_RESULT": "completely inactive"
  },
  {
    "MOLECULAR_STRING": "Nc1nc(-c2cccc(NC(=O)c3ccc4ccccc4n3)c2)c(C(=O)c2ccccc2)[nH]1",
    "MEASURED_RESULT": "completely inactive"
  }
]
